methodSummary: Plasma pharmacokinetics of UCN-01 in patients
Assay type: in vivo, human
statedConditions: human, plasma, intravenous, half-life, at the MTD, with prednisone
assayReadout: half-life

Ask | Form field: reported half-life of CN[C@@H]1C[C@H]2O[C@@](C)([C@@H]1OC)n1c3ccccc3c3c4c(c5c6ccccc6n2c5c31)C(=O)N[C@@H]4O [UCN-01, 7-hydroxy staurosporine]
Reply | ~18.8 days

Data provenance is paper PMC2854012.
